Target: T1, His6-PhoP (Riemerella anatipestifer RA-YM, UniProt E4TAE7 2-228)
T1 sequence: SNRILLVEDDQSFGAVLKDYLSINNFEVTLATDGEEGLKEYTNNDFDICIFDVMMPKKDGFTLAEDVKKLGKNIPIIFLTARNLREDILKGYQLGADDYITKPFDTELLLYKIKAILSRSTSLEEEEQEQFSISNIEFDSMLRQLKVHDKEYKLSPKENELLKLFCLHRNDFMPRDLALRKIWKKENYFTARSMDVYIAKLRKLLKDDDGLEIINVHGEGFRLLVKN
Experiment: EMSA; phosphorylated by acetyl phosphate
Settings: protein: recombinant; tags: His6 (pET-28a); chain copies: 2; label: 5' biotin on strand 1; blunt
Quantity name: Kd (µM)
Give bare numbers, in µM.

KYF39_00905 (transporter) probe (dsDNA) DNA 1: CAAAAAATATTTCATTAACAGAATAGACAATCATA DNA 2: TATGATTGTCTATTCTGTTAATGAAATATTTTTTG    0.0395

# ---- query binder ----
The binder KYF39_00915 (transposase) probe (dsDNA) DNA 1: TGAAAATTTCAAATTTAACTAAAGCTTATAGCAAT DNA 2: ATTGCTATAAGCTTTAGTTAAATTTGAAATTTTCA showed Kd equal to 0.0339
